# Assayed System: human CLDN18.2 (human)
# Assay Name: cell-based or functional assay
Assay Readout: ADCC EC50, Jurkat-CD16a v158-NFAT-luciferase effector cells, NIH-3T3-CLDN18.2 target cells (nM)

Binder	Display Unit	Val
humanized antibody hz40F6-2.1 (antibody, human IgG1, kappa, V domains shown) VH: QVQLVESGGGVVQPGRSLRLSCAASGFTLTSYGVYWVRQAPGKGLEWVAVVWAGGNTNYADSVKGRFTISKDNSKSTLYLQMNSLRAEDTAVYYCARDRGRLLAMDYWGQGTLVTVSS VL: DIVMTQSPDSLAVSLGERATINCKSSQSLLNSGNQKNYLAWYQQKPGQPPKLLIYGASTRESGVPDRFSGSGSGTDFTLTISSLQAEDVAVYYCQNDYFFPFTFGQGTKVEIKR	nM	0.012
